# EXPERIMENT DESCRIPTION: qHTS for Inhibitors of human tyrosyl-DNA phosphodiesterase 1 (TDP1): qHTS in cells in absence of CPT; further: nearly all actives have a fitted effect of over 55% in size
# ASSAY CONDITIONS: DT40 Tdp1-/- hTDP1 cells, no CPT, ATP luminescence, 48 h; series mostly up to 46.2 µM
Screen size: about 420,000 compounds; about 64,000 (15%) were called active. Another 27% or so got no clear call; they are omitted. The call rests on the fitted dose curve; in most records, active means well fitted inhibition curve with a large enough effect; inconclusive means small, poorly fitted or top-dose-only effect; inactive means flat fitted curve, though single readings scatter. This excerpt belongs to a sample that is enriched for actives.
// one of active, inactive, no free text

// query Please share the test call associated with CC1CCCCN1Cc1cccnc1 (stereo not drawn) .
// result inactive

// query Can you check `ClCCN(CCCl)c1ccc(C=Nc2ccc(/C=C/c3ccnc4ccccc34)cc2)cc1` next?
// result active

// query Can you check COC1CC(OC2CC[C@@]3(C=O)C4CC[C@]5(C)C(C6=CC(=O)OC6)CC[C@@]5(O)C4CC[C@]3(O)C2)OC(C)C1O (stereo partly drawn) next?
// result active

// query Can you check `CCN(Cc1ccccc1)S(=O)(=O)c1ccc2c(c1)CCCN2C(C)=O` next?
// result active

// query Can you check `CCCCC(=O)N/N=C/c1c(O)n(CC)c(=S)n(CC)c1=O` next?
// result active

// query Can you check `CCc1ccc(N(CC)C(=O)CCn2cnc3onc(-c4ccc(F)cc4)c3c2=O)cc1` next?
// result active

// query Can you check `C/C(=C\C=C/[C@@H](C)C(=O)O)[C@H]1CN[C@H](C(=O)O)[C@@H]1CC(=O)O` next?
// result inactive

// query Can you check CN(C)P(=S)(Nc1ccccc1)C(Cl)(Cl)Cl (stereo not drawn) next?
// result inactive

// query Can you check `CN(C)c1cccc(C(=O)Nc2nc3ccc(S(=O)(=O)NC(C)(C)C)cc3s2)c1` next?
// result active

// query Can you check CCOC(=O)c1ccc(N2C(=O)c3[nH]nc(-c4ccccc4)c3C2c2ccc(C(C)C)cc2)cc1 (stereo not drawn) next?
// result active

// query Can you check `COc1ccc(NC(=O)N2CCC3(CC2)OCCO3)c(OC)c1` next?
// result inactive

// query Can you check COc1ccc(-n2nnnc2C(c2cccc3ccccc23)N2CCC(n3c(=O)[nH]c4ccccc43)CC2)cc1 (stereo not drawn) next?
// result active

// query Can you check `CN1CCN(c2cc(N3CCNCC3)ccc2[N+](=O)[O-])CC1` next?
// result active

// query Can you check `CSc1nc2ccc(C)cc2c(=O)n1-c1cccnc1` next?
// result inactive

// query Can you check COC1C(O)C(C)OC(OC2CCC3(C=O)C(CCC4C3CCC3(C)C(C5=CC(=O)OC5)CCC43O)C2)C1O (stereo not drawn) next?
// result active

// query Can you check `CCN(CC)C(=O)c1ccc(NC(=O)c2cc(-n3cnnc3)ccc2Cl)cc1` next?
// result inactive

// query Can you check `Cc1cc(-c2ccc(N)c(C)c2)ccc1N` next?
// result inactive

// query Can you check COc1c(O)ccc2c1-c1c3c(cc4c1C(C2)N(C)CC4)OCO3 (stereo not drawn) next?
// result inactive

// query Can you check `COc1ccccc1C1=NCc2nnc(CSC)n2-c2ccc(Cl)cc21` next?
// result inactive

// query Can you check `CC(=CCOc1ccc2ccc(=O)oc2c1)C1=CC(=O)C(C)(C)O1` next?
// result active

// query Can you check `COc1cccc(-c2nc3ccc(N4CCN(C)CC4)cc3[nH]2)c1` next?
// result inactive

// query Can you check `Cc1ccc(-n2c(-c3ccc([N+](=O)[O-])cc3)nc3ccccc3c2=O)cc1` next?
// result active

// query Can you check `CCN1CCN(c2nc3c(c(=O)[nH]2)CCC3)CC1` next?
// result inactive

// query Can you check `CC(=O)c1ccc(S(=O)(=O)N2CCN(c3nc4c(C)c(C)ccc4cc3C#N)CC2)cc1` next?
// result active

// query Can you check `c1ccc(CCN2CCC3(CC2)OCCO3)cc1` next?
// result inactive

// query Can you check `c1ccc(CCNC2CCCCCC2)cc1` next?
// result inactive

// query Can you check `CN(C)C(=O)Oc1cc(=O)n2c3c(cccc13)CCC2` next?
// result inactive

// query Can you check `Cc1ccc(C(C)C)c(OCC(=O)N2CCN(CC(=O)N3CCOCC3)CC2)c1` next?
// result inactive

// query Can you check CCOC(=O)C1(c2ccccc2)CCN(CC(O)c2ccc(NC(C)=O)cc2)CC1 (stereo not drawn) next?
// result inactive

// query Can you check `Cc1ccc(-c2nc3ccccc3c(=O)n2-c2ccc(Br)cn2)cc1` next?
// result inactive

// query Can you check `CCOP(=S)(OCC)SCOC(=O)NCC(=O)OC` next?
// result inactive

// query Can you check `CCCCCCCCCCCCn1ccc(=N)cc1` next?
// result active

// query Can you check COc1ccc2c(c1)NP(=S)(c1ccccc1)N2 (stereo not drawn) next?
// result active

---

# EXPERIMENT DESCRIPTION: qHTS for Inhibitors of human tyrosyl-DNA phosphodiesterase 1 (TDP1): qHTS in cells in absence of CPT; further: nearly all actives have a fitted effect of over 55% in size
# ASSAY CONDITIONS: DT40 Tdp1-/- hTDP1 cells, no CPT, ATP luminescence, 48 h; series mostly up to 46.2 µM
# Method: Human tyrosyl-DNA phosphodiesterase 1 (TDP1) is a novel repair gene, and we propose to use it as a new target for anticancer drug development. […] For the primary screen, Tdp1-/-;hTDP1 cells will be exposed to small molecules in the presence or absence of CPT, and their growth kinetics will be evaluated after 48 hours by measuring ATP activity. […] The hit compounds will then be evaluated in the presence or absence of CPT using Tdp1-/- cells. […]
Hit rate of the full screen: of about 420,000 compounds, about 64,000 (15%) were called active. Inconclusive results (about 27%) are left out. The call rests on the fitted dose curve; in most records, active means well fitted inhibition curve with a large enough effect; inconclusive means small, poorly fitted or top-dose-only effect; inactive means flat fitted curve, though single readings scatter. This is one part of a sample in which actives are shown more often than they occur.
// one of YES = active, NO = inactive, no free text

// query Please share the test call associated with `CCOc1ccc(CN(CCCl)CCCl)cc1C(=O)OC` .
// result YES

// query Can you check `COC(=O)C1=C(c2ccc(Cl)c(C(F)(F)F)c2)C[C@@H]2CC[C@H]1N2C(=O)NC(C)C` next?
// result YES

// query Can you check Cc1cc(N2C(=O)C3CCCN3C2c2ccc(Cl)c(Cl)c2)no1 (configuration not stated) next?
// result NO

// query Can you check `COC(=O)C1=C(c2ccc(C(C)=O)cc2)C[C@@H]2CC[C@H]1N2C(=O)NCCNC(C)=O` next?
// result NO

// query Can you check `CC(C)(C)[C@]1(O)C[C@@H]2OC(=O)C[C@@]23C(=O)O[C@@H]2OC(=O)[C@H](O)[C@]213` next?
// result NO

// query Can you check CC(=O)OC1C2CCC3C1(CC(O)[C@@]1(O)[C@@H](CC(O)C1(C)C)[C@]3(C)O)C[C@@]2(C)O (some centres not stated) next?
// result NO

// query Can you check `CN1CC[C@H](c2c(O)cc(O)c3c(=O)cc(-c4ccccc4Cl)oc23)[C@H](O)C1` next?
// result YES

// query Can you check CC(=O)OC1C2(CC3N4C(=O)C5(CO)SSC4(CC31O)C(=O)N5C)OC(C)C(C)(C)C2=O (configuration not stated) next?
// result YES

// query Can you check `CC(C)N(CC#CCC1(O)c2ccccc2-c2ccccc21)C(C)C` next?
// result NO

// query Can you check `Cc1cccc(-n2c(O)c(C=NC34CN5CN(CN(C5)C3)C4)c(=O)[nH]c2=O)c1` next?
// result NO

// query Can you check COC(=O)C(c1ccccc1)N1CCCCCC1 (configuration not stated) next?
// result NO

// query Can you check `OC[C@@H]1CN(Cc2ccncc2)C[C@H](n2cnc3c(N4CCN(c5ccccc5)CC4)ncnc32)O1` next?
// result YES

// query Can you check `COc1ccc2[nH]cc(CCNCc3ccc(Br)cc3)c2c1` next?
// result YES

// query Can you check `Cc1cc(OCc2cc(C(=O)O)oc2C)c2c3c(c(=O)oc2c1)CCCC3` next?
// result NO

// query Can you check O=C1C2(Cl)C3(Cl)C4(Cl)C(Cl)(Cl)C5(Cl)C3(Cl)C1(Cl)C5(Cl)C24Cl (configuration not stated) next?
// result YES

// query Can you check `COC(=O)C1=C(c2ccc(Cl)c(C(F)(F)F)c2)C[C@@H]2CC[C@H]1N2C(=O)NC1CC1` next?
// result YES

// query Can you check `CN1CCN(C(=O)O[C@@H]2c3nccnc3C(=O)N2c2ccc(Cl)cn2)CC1` next?
// result NO
